System: RAW-Dual (murine macrophage reporter line)
Test: NF-kB reporter (SEAP) activity fold change vs agonist alone; higher = enhanced NF-kB activity
Settings: modulator concentration 10 µM; agonist: CpG ODN 1826 0.5 ug/mL
Would you please tag the item 1 when its NF-kB reporter is 0.9 or above, and -1 when it is below?

| MOLECULE | CAT |
| --- | --- |
| CC(=O)Oc1c(C)cc2sc3ccccc3c(=O)c2c1C | 1 |
| Cc1cc2ncc3c(n2n1)CCN(C(=O)c1cnoc1C)C3 | -1 |
| Cc1ccc(C2(O)C=CC(C)(C(Cl)(Cl)Cl)C=C2)cc1 (stereo unspecified) | -1 |
| CCOC(=O)C(Oc1ccc2c(c1)oc(=O)c1cc(OC)ccc12)c1ccccc1 (stereo unspecified) | 1 |
| c1cc2c3c(cccc3c1)-c1nc3ccccc3nc1-2 | 1 |

Now turn to the next molecule.
Query string: Item COc1ccc2cc1Oc1ccc(cc1)C[C@H]1c3c(cc4c(c3Oc3cc5c(cc3OC)CCN(C)[C@@H]5C2)OCO4)CCN1C with NF-kB reporter of 0.9 or above?
Result string: -1

---

System: RAW-Dual (murine macrophage reporter line)
Test: NF-kB reporter (SEAP) activity fold change vs agonist alone; higher = enhanced NF-kB activity
Settings: modulator concentration 10 µM; agonist: MPLA […]
Give NF-kB reporter for every item shown.

Completed entries (count: 3):
| MOL SMILES | NF-kB reporter |
| --- | --- |
| Cc1cc(C)n(CCNc2nc3ccccc3s2)n1 | 1 |
| Cl.O[C@@H](CNC[C@H](O)[C@H]1CCc2cc(F)ccc2O1)[C@@H]1CCc2cc(F)ccc2O1 | 0.982 |
| O=[N+]([O-])c1ccc(C=CC=Nc2ccc(-c3nc4ccccc4s3)c(O)c2)cc1 | 0.971 |

Query string: Send back RAW-Dual (murine macrophage reporter line) NF-kB reporter of O=C(CCC(=O)Nc1ccccc1)NN=Cc1ccc(Cl)cc1 only.
Result string: 1

---

Task for the reader: assign each of the following molecules its reported IRF reporter.
Test system: RAW-Dual (murine macrophage reporter line)
Experiment: IRF reporter (Lucia luciferase) activity fold change vs agonist alone; higher = enhanced IRF activity
Conditions: modulator concentration 10 µM; agonist: MPLA […]
Give bare numbers.

Examples with their reported IRF reporter follow.
| MOLECULE | TESTED TARGET | IRF reporter |
| --- | --- | --- |
| CC(C)(C)c1cc(C(=O)NN=Cc2ccc([N+](=O)[O-])cc2)[nH]n1 | RAW-Dual (murine macrophage reporter line) | 1.02 |
| COc1ccc(Cl)cc1S(=O)(=O)NCc1ccccn1 | RAW-Dual (murine macrophage reporter line) | 0.936 |
| CCOC(=O)C1=C(C)NC(C)=C(C(=O)OCC)C1c1ccc(OC)cc1OC | RAW-Dual (murine macrophage reporter line) | 1.25 |
| CN1CCN(C(=O)CN2C(=O)c3cccc4cccc(c34)C2=O)CC1 | RAW-Dual (murine macrophage reporter line) | 0.967 |
| CCCC(=O)Nc1ncnc2c1ncn2[C@@H]1O[C@@H]2OP(=O)([O-])OC[C@H]2[C@H]1OC(=O)CCC | RAW-Dual (murine macrophage reporter line) | 1.21 |

Parameters: items (list). Returns: IRF reporter for each item.
1. CC1CCN(c2cc(N3CCNCC3)ncn2)CC1
2. O=C1CCCc2nn(-c3ccccc3)nc21
3. Cc1cccc(-c2cc3nc(C)c(Cl)c(O)n3n2)c1
4. N=C(N)c1ccc(OCCCCCOc2ccc(C(=N)N)cc2)cc1.O=S(=O)(O)CCO.O=S(=O)(O)CCO
5. CCOC(=O)C1=C(C)NC2=C(C(=O)CC(C)(C)C2)C1c1ccccc1Br (stereo unspecified)
6. O=C(Cc1ccc([N+](=O)[O-])cc1)NN=Cc1ccccn1

Result string:
1: 1.26; 2: 1.21; 3: 1.04; 4: 0.788; 5: 0.975; 6: 1.08

---

System: RAW-Dual (murine macrophage reporter line)
Test: IRF reporter (Lucia luciferase) activity fold change vs agonist alone; higher = enhanced IRF activity
Conditions: modulator concentration 10 µM; agonist: MPLA […]
Please go through the items and note down their IRF reporter.
One number for each entry.

| MOLECULE | TESTED TARGET | IRF reporter |
| --- | --- | --- |
| COC(=O)C1C(=O)C(=CNCc2ccccc2)C(=O)CC1(C)C (stereo not drawn) | RAW-Dual (murine macrophage reporter line) | 0.992 |

Your task in this section: give IRF reporter for each listed record.
1. CC(C)c1ccccc1NC(=O)C1COCC(=O)N1Cc1ccccc1 (stereo not drawn)
2. Nc1nc(N)c2nc(-c3ccccc3)c(N)nc2n1
3. Nc1nc2ccc(OC(F)(F)F)cc2s1
4. COC(=O)C1=C(C)N(c2ccc(F)cc2)C(=O)C1
5. Cc1cccc2sc(OC3CN(C(=O)Nc4ccccc4C(F)(F)F)C3)nc12
6. Cc1ccc(-n2ncc3c(SCC(=O)NC(C)(C)C)ncnc32)c(C)c1
7. Oc1ccc(-c2cnc(-c3ccc(O)cc3)nc2)cc1
8. O=C1OCCN1C1CCN(C(=O)C2(c3ccc(F)cc3)CC2)C1 (stereo not drawn)

Result string:
[1.29, 1.18, 0.928, 0.505, 1.15, 1.22, 0.591, 1.45]

Batch: IRF reporter for all items listed.
1. O=C(NN=Cc1c(O)ccc2ccccc12)c1ccccc1Br
2. CS(=O)(=O)N(CC(=O)Nc1ccccc1Cl)c1ccc(Cl)c(C(F)(F)F)c1
3. O=C(O)c1ccccc1N(Cc1ccccc1)S(=O)(=O)c1ccccc1
4. O=C(O)CCCCCN1C(=O)c2cccc3cccc(c23)C1=O
5. Cc1nc2c(ccc3ccccc32)c(O)c1CN1CCCC1

Result string:
0.873
1.25
0.938
1.11
0.808

For every item in the list below, what is its measured IRF reporter?
1. COc1ccc(C(C)=NNC(=O)Nc2ccccc2)c(OC)c1
2. O=C1Nc2ccc(Cl)cc2[C@@](C#CC2CC2)(C(F)(F)F)O1
3. O=C1OC(c2ccc3ccccc3c2)=NC1=Cc1ccc(Cl)c([N+](=O)[O-])c1

Result string:
[1.4, 1.47, 1.16]

Below are 6 molecules. Give each one its IRF reporter.
1. CC(=O)C(C(=O)Nc1ccc(F)cc1)C(c1ccc(Cl)cc1Cl)C(C#N)C#N (stereo not drawn)
2. Cc1[nH]c2ccc(Br)cc2c(=O)c1CN1CCCCC1
3. CN1CCN(C(CC(=O)Nc2cccc(C(F)(F)F)c2)C(=O)O)CC1 (stereo not drawn)
4. Oc1nc(O)nc(N(c2ccccc2)c2ccccc2)n1
5. O=C(CCC(=O)NN=Cc1ccc(O)cc1)NN=Cc1ccc(O)cc1
6. O=C(CC1(Cc2ccc(I)cc2)C(=O)c2ccccc2C1=O)c1ccccc1

Result string:
1. 1.02
2. 0.92
3. 1.17
4. 1.08
5. 0.787
6. 1.59

I have 5 molecules here; please give me IRF reporter for each one.
1. Nc1ccc(C=Cc2ccccc2)cc1
2. Cc1ccc(S(=O)(=O)c2ccc(O)c(O)c2)cc1
3. c1ccc(Nc2nc(Nc3ccccc3)nc(N3CCCCC3)n2)cc1
4. CC1=C(CC(=O)O)c2cc(F)ccc2/C1=C\c1ccc(S(C)=O)cc1 (stereo not drawn)
5. O=C(CCCN1CCN(c2ccccn2)CC1)c1ccc(F)cc1

Result string:
0.719
1.08
1.22
1.41
1.15

Count: 5. Required value per item: IRF reporter.
1. O=C(O)CCC(=O)c1ccc(-c2ccccc2)cc1
2. Cc1cc(/C=C/C#N)cc(C)c1Nc1ccnc(Nc2ccc(C#N)cc2)n1
3. O=C(CCCCC(=O)NN=Cc1cccc(O)c1)NN=Cc1cccc(O)c1
4. CCN(CC)c1ccc(C=NNC(=O)c2ccc(O)cc2)c(O)c1
5. COc1cc(C=C2NC(=O)NC2=O)cc(I)c1OCc1ccccc1

Result string:
[0.999, 0.886, 1.16, 0.758, 1.12]

---

Assignment: determine reported IRF reporter for the given compounds.
System: RAW-Dual (murine macrophage reporter line)
Experiment: IRF reporter (Lucia luciferase) activity fold change vs agonist alone; higher = enhanced IRF activity
Conditions: modulator concentration 10 µM; agonist: LPS 0.1 ug/mL

| COMPOUND | IRF reporter |
| --- | --- |
| Cc1ccc(-c2ncc(Cl)cc2-c2ccc(S(C)(=O)=O)cc2)cn1 | 1.29 |

Take each entry in turn and give its IRF reporter.
1. COc1ccc(N(CC(=O)N(C)Cc2ccccc2)S(C)(=O)=O)cc1OC
2. CCN1C(=O)CC(NCCc2ccc(S(N)(=O)=O)cc2)C1=O (centres undefined)
3. O=C(Nc1ccccn1)NC1CCS(=O)(=O)C1 (centres undefined)

Result string:
[1.45, 1.46, 1.34]

---

System: RAW-Dual (murine macrophage reporter line)
Assay: NF-kB reporter (SEAP) activity fold change vs agonist alone; higher = enhanced NF-kB activity
Settings: modulator concentration 10 µM; agonist: MPLA […]
MEASURED QUANTITY: NF-kB reporter
Give bare numbers.

| COMPOUND | NF-kB reporter |
| --- | --- |
| CCOC(=O)C1=C[C@]2(CC)CCCN3CCc4c(n1c1ccccc41)[C@@H]32 | 0.994 |

Provide NF-kB reporter values for the following items, in order.
1. CSC1CCN(C(=O)Nc2ccc(C)c(C)c2)C1 (stereo not drawn)
2. Cc1ccsc1C(=CCCN1CCC[C@@H](C(=O)O)C1)c1sccc1C

Result string:
0.985
0.972

Each recorded value in this set is attributed to the supplement of paper PMC10646978.
